src = a melting point compilation (Tetko et al.; mined from patent text by program, amines drawn as free bases though some values may be those of a salt)

// reported melting point for each item listed

molecule=CC1CCN(CCCC(=O)c2ccc3c(c2)Cc2cc(C(=O)CCCN4CCC(C)CC4)ccc2-3)CC1 metric_name="melting point" result="180 to 181 °C"
molecule=COC(=O)CCc1ccc(N2CCCN(c3ccc(C#N)cc3)C2=O)cc1 metric_name="melting point" result="149 to 152 °C"
molecule="CC1=CC(c2cccc([N+](=O)[O-])c2)C2=C(CCCC2=O)N1 (stereo unspecified)" metric_name="melting point" result="183 to 185 °C"

Tell us which melting point value is on record for `COc1ccc(CNc2nn(CC(=O)OC(C)(C)C)c(=O)c3ccc(C#N)cc23)cc1Cl`
174 to 175 °C

Tell us which melting point value is on record for `CC(C)c1ccc2nc3ccc(C(=O)OCCCCc4cccnc4)cn3c(=O)c2c1`
95 to 96 °C

Tell us which melting point value is on record for COc1ccc2c(n1)C1(CO2)C(=O)N(Cc2ccccn2)c2ccccc21 (stereo unspecified)
168 to 171 °C

====

METRIC NAME: melting point

Tell us which melting point value is on record for `Cc1ccc(-c2cc(C(F)(F)F)n3cnc(C#N)c3n2)cc1C(F)(F)F`
220 °C

Tell us which melting point value is on record for CC(C)(C)C1=CC=CC(c2ccccc2Cl)(C(C)(C)C)C1O (configuration not stated)
89.5 to 91 °C

Tell us which melting point value is on record for COc1cc2c(cc1OC)[C@@H]1CN(C)CC[C@@H]1N=C2c1ccc(NC(C)=O)cc1 (relative stereo)
173 to 175 °C

Tell us which melting point value is on record for `O=C(O)C(Cl)=C(Cl)C(O)=NCCCc1ccc(Cl)cc1`
72 to 73 °C

Tell us which melting point value is on record for `Cn1c(I)nc2c(C(F)(F)F)nc(NCCc3ccccc3)nc21`
139 to 142 °C

Tell us which melting point value is on record for CCCn1c(=O)c2[nH]c(C34CCC(C)(C(=O)O3)C4(C)C)nc2n(CCC)c1=O (configuration not stated)
200 to 201 °C

Tell us which melting point value is on record for `O=C(O)c1cc(Oc2c(Br)cc(Br)cc2Br)ccc1[N+](=O)[O-]`
162 to 170 °C

Tell us which melting point value is on record for `CC(C)C[C@H](NC(=O)c1cccc(Cl)c1)C(=O)N[C@@H](C(C)C)[C@@H](O)c1c(-c2ccccc2)c1=O`
179 °C

Tell us which melting point value is on record for OC1CSC(Oc2ccc(-c3ccncc3)nc2Cl)C(O)C1O (configuration not stated)
186 °C

Tell us which melting point value is on record for `Cn1c2c(c3c4c(N)nc(N)nc4ccc31)CCCC2`
288 to 292 °C

Tell us which melting point value is on record for `CN1CCC(OC(=O)Cc2cnn(-c3ccccc3)c2-c2ccc(Cl)cc2)CC1`
90 to 93 °C

====

// reported melting point for each item listed

Take a look at these entries with their results.
structure=Cc1nc2cc(-n3cccc3)ccc2s1 metric_name="melting point" result="91 to 96 °C"
structure=COc1ccc(CCc2cc(OC)c(OC)c(OC)c2)cc1 metric_name="melting point" result="73 to 75 °C"
structure=O=c1ccccn1C(c1ccccc1)c1ccccc1 metric_name="melting point" result="142 to 145 °C"
structure=CN(C)C[C@H]1CC[C@H](CCNc2ncc(Br)cn2)CC1 metric_name="melting point" result="108 to 110 °C"
structure=CONS(=O)(=O)c1ccc(C(=O)C=Cc2cc(-c3cc4ccccc4n3C)c(OC)cc2OC)cc1 metric_name="melting point" result="214 to 216 °C"

Tell us which melting point value is on record for `O=C(NC1(C(=O)O)CC1)OCCOC(=O)c1ccccc1`
174 to 176 °C

Tell us which melting point value is on record for `Cc1ccc2c(c1)[nH]c1cc(C)ccc12`
280 to 281 °C
